// data source = ChEMBL document CHEMBL3217751

target: Calpain-1 catalytic subunit (Sus scrofa); experiment: Inhibition of Ca2+-dependent activation of porcine calpain-1 using SucLY-AMC as substrate
Sequence (P35750 whole entry): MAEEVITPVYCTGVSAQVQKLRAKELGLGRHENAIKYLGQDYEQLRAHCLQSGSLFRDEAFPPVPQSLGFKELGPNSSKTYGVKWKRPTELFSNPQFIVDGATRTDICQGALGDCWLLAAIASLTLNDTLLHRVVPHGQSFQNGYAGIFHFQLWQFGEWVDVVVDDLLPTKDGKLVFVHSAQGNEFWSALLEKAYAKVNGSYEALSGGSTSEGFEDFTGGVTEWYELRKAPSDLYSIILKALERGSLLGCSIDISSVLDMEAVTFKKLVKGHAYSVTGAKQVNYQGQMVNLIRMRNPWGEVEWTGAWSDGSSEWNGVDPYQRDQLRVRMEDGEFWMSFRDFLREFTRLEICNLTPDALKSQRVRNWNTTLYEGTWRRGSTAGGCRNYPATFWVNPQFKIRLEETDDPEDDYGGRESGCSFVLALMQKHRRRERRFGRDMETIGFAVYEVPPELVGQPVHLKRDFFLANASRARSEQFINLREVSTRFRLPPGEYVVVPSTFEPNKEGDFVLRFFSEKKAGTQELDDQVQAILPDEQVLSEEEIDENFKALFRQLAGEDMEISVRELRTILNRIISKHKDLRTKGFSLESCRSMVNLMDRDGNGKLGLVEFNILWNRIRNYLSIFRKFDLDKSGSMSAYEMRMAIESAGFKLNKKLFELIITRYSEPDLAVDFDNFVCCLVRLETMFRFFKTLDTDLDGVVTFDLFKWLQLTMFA
Recorded Metric: pIC50
Give bare numbers, as −log10 of the molar value.

Reference set, count: 3
| Molecule Smiles | pIC50 |
| --- | --- |
| O=C(O)/C(S)=C/c1c[nH]c2ccc(F)cc12 | 6.03 |
| O=C(O)/C(S)=C/c1cccc(I)c1 | 4.62 |
| O=C(O)/C(S)=C/c1ccccc1F | 4.63 |

Can you give me pIC50 for all of these, one by one?
1. O=C(O)/C(S)=C/c1c[nH]c2cccc(Br)c12
2. O=C(O)/C(S)=C/c1cccc(F)c1
3. O=C(O)/C(S)=C/c1c[nH]c2ccc(Cl)cc12
4. O=C(O)/C(S)=C/c1ccc(Br)cc1

Found:
[7.00, 4.50, 7.30, 5.82]

Can you give me pIC50 for all of these, one by one?
1. O=C(O)/C(S)=C/c1ccccc1Cl
2. O=C(O)/C(S)=C/c1ccc(I)cc1
3. O=C(O)/C(S)=C/c1ccc(Cl)cc1
4. O=C(O)/C(S)=C/c1c[nH]c2cccc(F)c12

Found:
1. 4.68
2. 5.28
3. 4.82
4. 6.52
